# System: hepatocellular carcinoma (HepG-2)
# ASSAY TEXT: MTT assay, HepG-2
# Assay type: cell-based, human
# CONDITION DESCRIPTION: Homo sapiens, HepG2, 48 h, read-out: Anti-cancer activity HepG-2 (IC50), MTT, 48 h
MEASUREMENT NAME: IC50 (µM)
Express the result in µM but write the number alone.

Take a look at these entries with their results.
molecule="CCOP(=O)(OCC)C(Nc1ncc(Cl)cc1Cl)c1ccc(O)c(OC)c1 (stereo not shown)" test_target="hepatocellular carcinoma (HepG-2)" measurement_name=IC50 reading=17.9
molecule="CCOP(=O)(OCC)C(Nc1ncc(Cl)cc1Cl)c1ccc(O)cc1 (stereo not shown)" test_target="hepatocellular carcinoma (HepG-2)" measurement_name=IC50 reading=66.8
molecule="CCOP(=O)(OCC)C(Nc1ncc(Cl)cc1Cl)c1ccc(N(C)C)cc1 (stereo not shown)" test_target="hepatocellular carcinoma (HepG-2)" measurement_name=IC50 reading=3.1

Next, consider the following molecule.
Provide IC50, system hepatocellular carcinoma (HepG-2), entry CCOP(=O)(OCC)C(Nc1ncc(Cl)cc1Cl)c1ccccc1O (stereo not shown) 2.4

====

# Tested on: colorectal adenocarcinoma (Caco-2)
# ASSAY TEXT: MTT assay, Caco-2
# Format: cell-based, human
# CONDITION DESCRIPTION: MTT, 48 h, compared with DOX
MEASUREMENT NAME: antitumor impact on Caco-2

Take a look at these entries with their results.
compound="CCOP(=O)(OCC)C(Nc1ncc(Cl)cc1Cl)c1ccccc1OC (centres unmarked)" test_target="colorectal adenocarcinoma (Caco-2)" measurement_name="antitumor impact on Caco-2" reading="moderate to weak impact"
compound="CCOP(=O)(OCC)C(Nc1ncc(Cl)cc1Cl)c1ccc(O)c(OC)c1 (centres unmarked)" test_target="colorectal adenocarcinoma (Caco-2)" measurement_name="antitumor impact on Caco-2" reading="low effect"
compound="CCOP(=O)(OCC)C(Nc1ncc(Cl)cc1Cl)c1ccsc1 (centres unmarked)" test_target="colorectal adenocarcinoma (Caco-2)" measurement_name="antitumor impact on Caco-2" reading="low effect"
compound="CCOP(=O)(OCC)C(Nc1ncc(Cl)cc1Cl)c1ccccc1O (centres unmarked)" test_target="colorectal adenocarcinoma (Caco-2)" measurement_name="antitumor impact on Caco-2" reading="moderate to weak impact"

Next, consider the following compound.
Give the measured antitumor impact on Caco-2 for CCOP(=O)(OCC)C(Nc1ncc(Cl)cc1Cl)c1ccc(N(C)C)cc1 (centres unmarked) moderate to weak impact
